- Procedure Details: M. tuberculosis growth inhibition, HTS (AID 1259417);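 also: bacteria grown with compound for 5 days at 37 °C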
- Experimental Parameters: M. tuberculosis growth inhibition; stronger effect = higher value; concentration not given here
Hit rate of the full screen: of about 1,100 compounds, about 760 (69%) were called active. So high a share suggests a set chosen from earlier hits. Some of the results follow.
In this section, each of the compounds is paired with its reported inhibition.
Kindly answer with a numeric value in %, unit omitted.

Compound	inhibition (%)
CCc1ccc(OCC(=O)Nc2ccc(N3CCN(C(=O)c4cccs4)CC3)c(Cl)c2)cc1	-20.3
CC(C)(C)c1ccc(C(=O)Nc2nnc(-c3cccnc3)o2)cc1	89.3
CCOC(=O)c1c(CSc2ccccc2)n(-c2ccccc2)c2ccc(O)c(CN(C)C)c12	91.9

I am curious: what inhibition value has been reported for c1ccc(-c2nnc(SCc3nnc(-c4cccs4)o3)o2)cc1 ?
-5.86

Also CCCCOc1ccc(C(=O)Nc2nnc(-c3ccco3)o2)cc1 ?
26

Also COc1cc(NC(=O)c2cc3ccccc3o2)ccc1NC(=O)c1ccccc1Cl ?
-0.577

* * *

In this section, each of the compounds is paired with its reported inhibition.
- Procedure Details: M. tuberculosis growth inhibition, HTS (AID 1259417);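 also: bacteria grown with compound for 5 days at 37 °C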
- Experimental Parameters: M. tuberculosis DsRed fluorescence growth inhibition; stronger effect = higher value; concentration not given here
Screen size: about 1,100 compounds; about 760 (69%) were called active. So high a share suggests a set chosen from earlier hits. Some of the results follow.
Kindly answer with a numeric value in %, unit omitted.

Use these answered entries as a reference point.
Compound	Measured Number
Cc1ccc(Cc2ccc(C(=O)Nc3ccc(C)c(C)c3)o2)cc1	99.7
O=C(Oc1ccc(Cl)cc1)c1ccc(N2CCOCC2)c([N+](=O)[O-])c1	4.2
O=c1c2cccc3c2c(nn1CCN1CCCCC1)-c1ccccc1-3	-22.6
O=C(Nc1cccc(Br)c1)c1ccc(-c2ccc(Cl)cc2)o1	8.23
CO[C@H]1C=CO[C@@]2(C)Oc3c(C)c(O)c4c(O)c(c5c(c4c3C2=O)=NC2(CCN(CC(C)C)CC2)N=5)NC(=O)C(C)=CC=C[C@H](C)[C@H](O)[C@@H](C)[C@@H](O)[C@@H](C)[C@H](OC(C)=O)[C@@H]1C	100

I am curious: what inhibition value has been reported for Cc1ccc(CSCC(=O)Nc2ccccc2)cc1 ?
3.53

Also CCOC(=O)c1sc(NC(=O)c2c(F)c(F)c(F)c(F)c2F)c(C(=O)OCC)c1C ?
93.8

Also CCOC(=O)C=CC(=O)Nc1sc2c(c1C(=O)OC)CCC2 ?
10.6

Also Cc1cccc2sc(NC(=O)c3ccc(C(C)(C)C)cc3)nc12 ?
12.6

Also COC(=O)COc1ccc(NC(=O)COc2ccc(C)cc2C)cc1 ?
99.4

Also Cc1ccc(-c2nnc(SCC#CCOC(=O)c3ccco3)o2)cc1 ?
35.7

* * *

- Procedure Details: M. tuberculosis growth inhibition, HTS (AID 1259417);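 also: bacteria grown with compound for 5 days at 37 °C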
- Experimental Parameters: M. tuberculosis DsRed fluorescence growth inhibition; stronger effect = higher value; concentration not given here
Out of some 1,100 compounds screened, about 760 (69%) were called active. So high a share suggests a set chosen from earlier hits. Some of the results follow.
In this section, each of the compounds is paired with its reported inhibition.
Kindly answer with a numeric value in %, unit omitted.

Use these answered entries as a reference point.
Compound	Measure	Units Text	Measured Number
CCOC(=O)CSc1nc(N)c(C#N)c(-c2cccs2)c1C#N	inhibition	%	-3.66
CCOC(=O)COc1cc2oc(=O)cc(CC)c2cc1Cl	inhibition	%	6.17

I am curious: what inhibition value has been reported for Cc1ccc(C)c(-c2nnc(NC(=O)c3ccc([N+](=O)[O-])o3)o2)c1 ?
12.4

Also CC(C)CC(=O)NC(c1ccc(Cl)cc1Cl)c1c(O)ccc2ccccc12 (stereo unspecified) ?
5.28

Also CC(C)C(=O)N1CCN(c2ccccc2NC(=O)c2ccc([N+](=O)[O-])o2)CC1 ?
19.7

* * *

- Procedure Details: M. tuberculosis growth inhibition, HTS (AID 1259417);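 also: bacteria grown with compound for 5 days at 37 °C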
- Experimental Parameters: M. tuberculosis DsRed fluorescence growth inhibition; stronger effect = higher value; concentration not given here
Hit rate of the full screen: of about 1,100 compounds, about 760 (69%) were called active. The set was probably picked from earlier hits. The list shows a part of the results.
In this section, each of the molecules is paired with its reported inhibition.

Molecule	Measure	Result
Cc1ccc(-c2nnc(NC(=O)c3ccccc3Cl)o2)c(C)c1	inhibition	24.1% (active)
N#Cc1ccc(NC(=O)CSc2ccc(Br)cc2)cc1	inhibition	8.52% (active)
CCOC(=O)CCc1c(C)c(C#N)c2[nH]c3ccccc3n2c1=O	inhibition	98.3% (active)
c1ccc(CCNc2nc(-c3ccccn3)cs2)cc1	inhibition	87.2% (active)
Cc1ccc(-c2nnc(NC(=O)c3ccccc3Br)o2)c(C)c1	inhibition	6.55% (inactive)
NNC(=O)c1ccc(-c2ccccc2Cl)o1	inhibition	-6.57% (inactive)

I am curious: what inhibition value has been reported for O=C(CSc1nnc(SCc2cccc3ccccc23)s1)Nc1ccccc1F ?
3.26% (active)

Also COC(=O)COc1ccc2c(=O)c(-c3ccccc3Cl)coc2c1 ?
74% (active)

Also Cc1cc(O)ccc1Nc1nc(-c2ccccn2)cs1 ?
71.9% (active)

Also Clc1ccc(OCCCCn2ccnc2)c(Br)c1 ?
98.8% (active)

Also COc1ccc(C2=CC(c3c(C)nn(-c4ccccc4)c3Cl)n3nnnc3N2)cc1OC (stereo unspecified) ?
99.1% (active)

Also O=C(C[n+]1cc(-c2ccc(Cl)c(Cl)c2)n2c1CCC2)N1c2ccccc2Sc2ccccc21 ?
37.7% (active)

Also CCOC(=O)COc1ccc2c(=O)cc(-c3ccccc3)oc2c1 ?
89.6% (active)

* * *

- Procedure Details: M. tuberculosis growth inhibition, HTS (AID 1259417);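 also: bacteria grown with compound for 5 days at 37 °C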
- Experimental Parameters: M. tuberculosis growth inhibition; stronger effect = higher value; concentration not given here
The whole screen tested about 1,100 compounds, of which about 760 (69%) were called active. The set was probably picked from earlier hits. This is one part of the list.
Measure: inhibition (%)
Kindly answer with a numeric value in %, unit omitted.

Use these answered entries as a reference point.
Compound	Units Text	inhibition
Cc1cc(O)ccc1Nc1nc(-c2ccccn2)cs1	%	77.7
Cc1cc(OC(=O)C2CC2)c2c3c(c(=O)oc2c1)CCCC3	%	21.7
CCOC(=O)COc1cc2c3c(c(=O)oc2cc1C)CCCC3	%	89.3
Cc1ccc(C(C)C)c(OCc2nn(CC(=O)c3ccc(OC(F)F)cc3)c3[n+]2CCCCC3)c1	%	99.1
O=C(CCN1C(=O)c2ccccc2C1=O)Oc1cccc2cccnc12	%	100

I am curious: what inhibition value has been reported for CCOC(=O)C(C)Sc1ncnc2c1cnn2-c1ccc(F)cc1 (stereo not drawn) ?
87.2

Also CC12CC3CC(C)(C1)CC(CNCc1ccccc1O)(C3)C2 ?
99.3

Also CCOC(=O)CSc1ncnc2c1cnn2-c1ccc(C)cc1C ?
77.1

* * *

- Procedure Details: M. tuberculosis growth inhibition, HTS (AID 1259417);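 also: bacteria grown with compound for 5 days at 37 °C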
- Experimental Parameters: M. tuberculosis growth inhibition; stronger effect = higher value; concentration not given here
In all, about 1,100 compounds went through this assay and about 760 (69%) were called active. The set was probably picked from earlier hits. Some of the results follow.
Output Met for inhibition not less than 80%; output Not met otherwise.

For this molecule, is measured inhibition 80% or higher? COc1ccc(OCC(=O)Nc2ccc(I)cc2C)cc1
Not met

Also COc1cccc(-c2csc(N3CCN(C(=O)NC45CC6CC(CC(C6)C4)C5)CC3)n2)c1 ?
Not met

Also Cc1cc(Cl)ccc1NC(=O)CCc1ccc(S(=O)(=O)NC(C)C)cc1 ?
Met

* * *

- Procedure Details: M. tuberculosis growth inhibition, HTS (AID 1259417);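 also: bacteria grown with compound for 5 days at 37 °C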
- Experimental Parameters: M. tuberculosis DsRed fluorescence growth inhibition; concentration not given here
In all, about 1,100 compounds went through this assay and about 760 (69%) were called active. The rule behind the calls is not given here. The set was probably picked from earlier hits. Some of the results follow.
Just give me one of these, please: True for active, False for inactive

Oc1cccc(Nc2nc(NCc3ccccc3)c3ccccc3n2)c1 False
Cc1ccc(Sc2ccc(C=O)o2)cc1 False

Per the records of this test, what outcome belongs to CC(C)(C)c1ccc(C(=O)Nc2nnc(-c3ccco3)o2)cc1 ?
True

* * *

In this section, each of the molecules is paired with its reported inhibition.
- Procedure Details: M. tuberculosis growth inhibition, HTS (AID 1259417);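 also: bacteria grown with compound for 5 days at 37 °C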
- Experimental Parameters: M. tuberculosis growth inhibition; stronger effect = higher value; concentration not given here
Hit rate of the full screen: of about 1,100 compounds, about 760 (69%) were called active. The set was probably picked from earlier hits. This is one part of the list.
Kindly answer with a numeric value in %, unit omitted.

I am curious: what inhibition value has been reported for O=C(NCCSc1c[nH]c2ccccc12)c1cc2ccccc2oc1=O ?
42.8

Also CCCn1nnnc1NC(=O)c1cccs1 ?
29.4

Also Cc1cc(C)c2c(c1)c(-c1ccccc1)c(-c1ccccc1)n2CC(O)CN1CCN(CCO)CC1 (stereo not drawn) ?
39.3

Also O=C(OCn1nnc2ccccc2c1=O)c1ccccc1 ?
44.9

Also O=C(CSc1nnc(CNc2cccc(Cl)c2)o1)OC1CCCCC1 ?
81.6

Taken from PubChem BioAssay AID1259417.
